target: rat MC4 receptor (Rattus norvegicus); test: Rat MC4 receptor activation, cAMP production in cells transiently expressing the receptor; conditions: FreeStyle 293-F cells expressing rat MC4 receptor, α-MSH maximum = 100%
Sequence (P70596 whole entry): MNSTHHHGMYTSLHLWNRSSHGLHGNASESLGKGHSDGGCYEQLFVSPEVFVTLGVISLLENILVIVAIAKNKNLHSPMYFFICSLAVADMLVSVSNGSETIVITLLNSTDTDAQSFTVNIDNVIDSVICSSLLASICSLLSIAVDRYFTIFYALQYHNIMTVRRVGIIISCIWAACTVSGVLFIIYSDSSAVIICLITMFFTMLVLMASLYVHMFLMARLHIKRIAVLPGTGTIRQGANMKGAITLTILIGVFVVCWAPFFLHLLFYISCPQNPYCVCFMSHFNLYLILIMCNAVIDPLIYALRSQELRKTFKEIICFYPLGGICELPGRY
Counter-ions that a name gives are not always drawn.
METRIC: EC50 (nM)

>>> meas_value("CC(=O)N[C@@H](CC(C)(C)C)C(=O)N1CCN(C(=O)[C@@H]2CN(C3CCOCC3)C[C@H]2c2ccc(Cl)cc2F)[C@@H](C)C1.Cl [Example 20, monohydrochloride]")
7.6

P = CC(=O)N[C@@H](CC(C)(C)C)C(=O)N1C[C@H](C)N(C(=O)C2CN(C(C)(C)C)CC2c2ccc(F)cc2)C[C@H]1C.Cl (stereo partly drawn)
Q = CC(=O)N[C@@H](CC(C)(C)C)C(=O)N1CCN(C(=O)[C@@H]2CN(C(C)C)C[C@H]2c2ccc(F)cc2F)[C@@H](C)C1 [Example 24, monohydrochloride]
Which entry shows the lesser value of EC50 here, P or Q ? Give the label under which the chosen entry appears.
P
(P: 10 nM, Q: 46 nM)
